Test system: CCRIS mutagenicity, Ames/micronucleus/aberration tests
Assay: CCRIS mutagenicity studies
Settings: Test System: Ames Salmonella typhimurium; Strain/Indicator: TA1535; Metabolic Activation: None; Method: Preincubation
Calls of active or inactive are those of the source. The rule behind the calls is not given here.
Outcome codes: True = active, False = inactive

{"columns": ["molecule", "discreteLabel"],
 "data": [
  ["Cc1ccccc1O", "False"],
  ["C", "False"],
  ["O=Cc1ccc(CO)o1", "False"],
  ["CC(C)N=C=NC(C)C", "False"],
  ["CC(=NC#N)N(C)Cc1ccc(Cl)nc1", "False"],
  ["CCCCNC(=O)c1cc(N)ccc1Oc1ccc(C)cc1", "False"],
  ["CC(=O)/C=C/C1=C(C)CCCC1(C)C", "False"],
  ["Clc1cc2c(cc1Cl)Oc1cc(Cl)c(Cl)cc1O2", "False"],
  ["CCN(CC)c1ccc2nc3ccc(=[N+](CC)CC)cc-3oc2c1", "False"],
  ["Oc1ccccc1O", "False"],
  ["CCCCCCCC/C=C\\CCCCCCCC(N)=O", "False"],
  ["O=C1C(Cl)=C(Cl)C(=O)C(Cl)=C1Cl", "False"],
  ["CC(O)CN (stereo not given)", "False"],
  ["CN(CCCl)c1ccc(/C=C/C2=[N+](C)c3ccccc3C2(C)C)cc1", "False"],
  ["FC(F)(Br)C(F)(F)I", "True"]
]}

* * *

System: CCRIS mutagenicity, Ames/micronucleus/aberration tests
Assay: CCRIS mutagenicity studies
Settings: Test System: AMES SALMONELLA TYPHIMURIUM; Strain/Indicator: TA98; Metabolic Activation: RAT, LIVER, S-9, AROCLOR 1254; Method: STANDARD PLATE
The source made the active and inactive calls. The rule behind the calls is not given here.
Outcome codes: active, inactive

{"columns": ["mol", "discreteLabel"],
 "data": [
  ["Cc1ccc2nc(-c3ccc(N)cc3)sc2c1", "active"],
  ["CC1=C(/C=C/C(C)=C/C=C/C(C)=C/C=C/C=C(C)/C=C/C=C(C)/C=C/C2=C(C)CCCC2(C)C)C(C)(C)CCC1", "inactive"],
  ["O=[N+]([O-])O", "inactive"],
  ["CCCCCCCCCCCCCCCC(=O)OC[C@H](O)[C@H]1OC(=O)C(O)=C1O", "inactive"],
  ["COP(=O)(SC)SC", "inactive"],
  ["O=C(O)c1ccccc1", "inactive"],
  ["C=C(C)C(=O)OCCCCOC(=O)C(=C)C", "inactive"],
  ["CC(=O)N(Cl)c1ccc2c(c1)Cc1ccccc1-2", "active"],
  ["Cc1ccc2c(c1)c(C)c1c3ccccc3nc-1n2C", "active"]
]}

* * *

Tested on: CCRIS mutagenicity, Ames/micronucleus/aberration tests
Experiment: CCRIS mutagenicity studies
Details: Test System: AMES SALMONELLA TYPHIMURIUM; Strain/Indicator: TA1538; Metabolic Activation: RAT, LIVER, S-9, AROCLOR 1254; Method: STANDARD PLATE
Active and inactive are the calls of the source. The rule behind the calls is not given here.
Outcome codes: active, inactive

{"columns": ["compound", "discreteLabel"],
 "data": [
  ["Cc1cc(=O)oc2c3c4c(cc12)CCCN4CCC3", "active"],
  ["CCCCOc1cc(N=Nc2ccc(N(CC)CC)cc2)ccc1N=Nc1c(S(=O)(=O)O)cc2ccc(N)cc2c1O", "active"],
  ["O=P(O)(O)OCC(O)CO (stereo not drawn)", "inactive"],
  ["c1ccc2cc3c(ccc4ccccc43)cc2c1", "inactive"],
  ["C=CCc1ccc2c(c1)OCO2", "inactive"],
  ["CCCCOCCOCCOCc1cc2c(cc1CCC)OCO2", "inactive"],
  ["CC1=Nc2ccccc2C1(C)C", "inactive"],
  ["O=[N+]([O-])C1=Cc2cc3cc4ccccc4cc3c3cccc1c23", "inactive"],
  ["O=C(c1ccccc1)C(O)c1ccccc1 (stereo not drawn)", "inactive"],
  ["CN1CCC(=C2c3ccccc3C=Cc3ccccc32)CC1", "inactive"],
  ["C=C(C)C(=O)OCCCC", "inactive"],
  ["O=C1c2cccc(O)c2C(=O)c2c(O)cccc21", "inactive"],
  ["CC(=O)OC(C)=O", "inactive"]
]}
